pKb: recorded values
- tested.on: Alpha-1B adrenergic receptor (Rattus norvegicus) (UniProt P15823)
- Sequence (P15823 whole entry): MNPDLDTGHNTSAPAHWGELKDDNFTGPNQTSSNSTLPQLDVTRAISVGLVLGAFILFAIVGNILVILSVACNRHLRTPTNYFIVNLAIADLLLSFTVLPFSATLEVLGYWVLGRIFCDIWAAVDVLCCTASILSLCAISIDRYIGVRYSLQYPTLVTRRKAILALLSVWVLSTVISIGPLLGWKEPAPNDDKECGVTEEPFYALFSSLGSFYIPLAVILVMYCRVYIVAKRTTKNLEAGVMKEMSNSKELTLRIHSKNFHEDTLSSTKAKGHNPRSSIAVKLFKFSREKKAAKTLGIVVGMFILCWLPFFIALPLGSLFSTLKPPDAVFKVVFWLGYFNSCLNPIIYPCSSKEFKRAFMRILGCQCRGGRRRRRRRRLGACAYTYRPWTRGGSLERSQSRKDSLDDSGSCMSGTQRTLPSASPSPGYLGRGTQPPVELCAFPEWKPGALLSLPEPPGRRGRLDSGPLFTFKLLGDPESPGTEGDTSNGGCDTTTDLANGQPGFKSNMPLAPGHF
- method.description: Antagonist activity at alpha1B adrenoceptor in Wistar rat spleen assessed as inhibition of (-)-phenylephrine-induced contraction after 30 mins
- Format: functional, tissue-based
Write the number on its own, no unit after it.

{"compound": "c1ccc(OCCNC[C@@H]2COC[C@H](c3ccccc3)O2)cc1 (relative stereo)", "pKb": 7.12}
{"compound": "COc1cccc(OC)c1OCCNCC1COc2ccccc2O1 (centres undefined)", "pKb": 8.16}
{"compound": "COc1ccccc1OCCNC[C@@H]1COC[C@@H](c2ccccc2)O1 (relative stereo)", "pKb": 7.96}

Give its pKb value. Item: COc1cccc(OC)c1OCCNC[C@@H]1CO[C@H](c2ccccc2)CO1 (relative stereo) 6.7

Quick one: COc1cccc(OC)c1OCCNC[C@@H]1COC[C@@H](c2ccccc2)O1 (relative stereo) 5.75

// query: COc1cccc(OC)c1OCCNC[C@@H]1COC[C@H](c2ccccc2)O1 (relative stereo) 5.84

Now consider COc1ccccc1OCCNC[C@@H]1COCC(c2ccccc2)(c2ccccc2)O1 . 6.86

For COc1ccccc1OCCNC[C@@H]1COC[C@H](c2ccccc2)O1 (relative stereo) then? 7.4

What do we get for c1ccc(OCCNC[C@@H]2COCC(c3ccccc3)(c3ccccc3)O2)cc1 ? 7.84

* * *

For Alpha-1A adrenergic receptor (Homo sapiens, UniProt P35348), measured Ki is reported for the entries below.
Dear colleague, please return just the value in nM, with no unit written.

Here are 5 compounds together with their reported answers.
{"compound": "c1ccc(OCCNC[C@@H]2COC(c3ccccc3)(c3ccccc3)CO2)cc1", "data.value": 224}
{"compound": "c1ccc(OCCNC[C@@H]2CO[C@@H](c3ccccc3)CO2)cc1 (relative stereo)", "data.value": 537}
{"compound": "c1ccc(OCCNC[C@@H]2COC[C@@H](c3ccccc3)O2)cc1 (relative stereo)", "data.value": 407}
{"compound": "c1ccc(OCCNC[C@@H]2COCC(c3ccccc3)(c3ccccc3)O2)cc1", "data.value": 170}
{"compound": "COc1cccc(OC)c1OCCNC[C@@H]1COC(c2ccccc2)(c2ccccc2)CO1", "data.value": 89.1}

// returns reported Ki for input COc1ccccc1OCCNC[C@@H]1COC(c2ccccc2)(c2ccccc2)CO1 74.1

What about this compound? COc1ccccc1OCCNC[C@@H]1CO[C@H](c2ccccc2)CO1 (relative stereo) 437

What do you have for COc1ccccc1OCCNC[C@@H]1COCC(c2ccccc2)(c2ccccc2)O1 ? 27.5

* * *

- tested.on: 5-hydroxytryptamine receptor 1A (Homo sapiens) (UniProt P08908)
- Sequence (P08908 whole entry): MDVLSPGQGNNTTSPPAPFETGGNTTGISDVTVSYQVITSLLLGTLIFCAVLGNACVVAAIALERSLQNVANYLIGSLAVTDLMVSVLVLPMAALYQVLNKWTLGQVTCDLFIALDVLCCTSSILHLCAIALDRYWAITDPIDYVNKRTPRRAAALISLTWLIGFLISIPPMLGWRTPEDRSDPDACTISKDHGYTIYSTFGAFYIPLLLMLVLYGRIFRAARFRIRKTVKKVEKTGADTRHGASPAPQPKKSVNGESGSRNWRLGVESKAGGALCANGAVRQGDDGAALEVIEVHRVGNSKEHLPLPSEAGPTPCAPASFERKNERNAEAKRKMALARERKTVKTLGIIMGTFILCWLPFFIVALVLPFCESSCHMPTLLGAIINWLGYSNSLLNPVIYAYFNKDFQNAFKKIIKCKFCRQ
- method.description: Agonist activity at human cloned 5HT1A receptor expressed in HeLa cell membrane assessed as stimulation of [35S]GTPgammaS binding relative to 5-hydroxytryptamine
- Format: functional, cell membranes
measure.name: %max

// worked examples, %max included
{"compound": "COc1ccccc1OCCNC[C@@H]1COC[C@H](c2ccccc2)O1 (relative stereo)", "%max": 78.1}
{"compound": "COc1ccccc1N1CCN(CCN2C(=O)CC3(CCCC3)CC2=O)CC1", "%max": 26}

Here's the next entry for you.
So what's the measured %max for this one? CCCN(CCC)C1CCc2cccc(O)c2C1 (stereo not drawn) 100

Data origin, for the record: ChEMBL document CHEMBL1140161
